The origin of these recorded values is patent US9833497B2.

Test system: Pseudomonas aeruginosa
test.protocol: MIC against Gram-negative bacteria: Pseudomonas aeruginosa
Assay type: cell-based
stated.conditions: Pseudomonas aeruginosa; 96-well plate, 5×10^5 CFU/mL, 37° C., 10 h
Measured MIC against P. aeruginosa by item
quantity.kind: MIC against P. aeruginosa (µg/mL)

>>> observed("PRT1271 (DTNECSINNGGCQQVCVNTVGSYECQCHPGYKLHWNKKDCV; listed as Homo sapiens)")
12.5
>>> observed("PRT1250 (FGARCDRYCQCFRGRCHPVDGTCACEPGYRGKYCR; listed as Homo sapiens)")
12.5
>>> observed("PRT1202 (GYDFCSERHNCMENSICRNLNDRAVCSCRDGFRALREDNAYCE; listed as Homo sapiens)")
25
>>> observed("PRT1286 (PKSPCEGTECQNGANCVDQGNRPVCQCLPGFGGPECE; listed as Homo sapiens)")
12.5
>>> observed("PRT1322 (PIDPCRAGNGGCHGLATCRAVGGGQRVCTCPPGFGGDGFS; listed as Homo sapiens)")
12.5
>>> observed("PRT1223 (LEGACTRSPCQHGGTCMDYWSWQQCHCKEGLTGKYCE; listed as Homo sapiens)")
12.5
